TARGET_ENTITY: UniProt P25099
Sequence (P25099 whole entry): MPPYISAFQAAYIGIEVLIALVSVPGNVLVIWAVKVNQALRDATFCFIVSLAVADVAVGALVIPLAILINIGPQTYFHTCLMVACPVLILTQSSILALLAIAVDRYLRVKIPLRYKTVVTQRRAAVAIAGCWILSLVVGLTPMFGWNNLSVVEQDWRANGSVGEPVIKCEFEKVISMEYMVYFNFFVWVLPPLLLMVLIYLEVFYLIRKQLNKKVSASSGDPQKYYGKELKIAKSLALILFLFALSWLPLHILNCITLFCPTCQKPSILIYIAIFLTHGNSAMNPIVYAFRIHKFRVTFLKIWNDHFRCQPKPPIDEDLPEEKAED
PROCEDURE_DETAILS: biochemical
RUN_CONDITIONS: read-out: % displacement at 10^-5 M, A1
PROPERTY_NAME: inhibition at 10 µM (%)
Field: numeric (%). Do not append units.

Past entries and their recorded results:
- COMPOUND: "CCCCNc1nc2c(N)nc(I)nc2n1[C@@H]1O[C@H](CO)[C@@H](O)[C@H]1O"
  REPORTED_RESULT: 28.2
- COMPOUND: "CCCCC#Cc1nc(N)c2nc(NC)n([C@@H]3O[C@H](CO)[C@@H](O)[C@H]3O)c2n1"
  REPORTED_RESULT: 31.6
- COMPOUND: "CCCCC#Cc1nc(N)c2nc(NCC)n([C@@H]3O[C@H](CO)[C@@H](O)[C@H]3O)c2n1"
  REPORTED_RESULT: 30.9
- COMPOUND: "Nc1nc(NCc2ccccc2)nc2c1nc(NCc1ccccc1)n2[C@@H]1O[C@H](CO)[C@@H](O)[C@H]1O"
  REPORTED_RESULT: 50.2
- COMPOUND: "Nc1nc(I)nc2c1nc(Br)n2[C@@H]1O[C@H](CO)[C@@H](O)[C@H]1O"
  REPORTED_RESULT: 21.6
- COMPOUND: "CCNc1nc2c(N)nc(I)nc2n1[C@@H]1O[C@H](CO)[C@@H](O)[C@H]1O"
  REPORTED_RESULT: 35.2

Ask: Lab note: need inhibition at 10 µM with UniProt P25099 for entry Nc1nc(I)nc2c1nc(NCc1ccccc1)n2[C@@H]1O[C@H](CO)[C@@H](O)[C@H]1O , please look it up.
Reply: 35.5

Ask: Form field: inhibition at 10 µM recorded for CCCC/C=C/c1nc(N)c2nc(NCC)n([C@@H]3O[C@H](CO)[C@@H](O)[C@H]3O)c2n1 [Compound 18, 2-((E)-1-hexenyl)-8-ethylaminoadenosine] with UniProt P25099 (enter value)
Reply: 30

Ask: What measured inhibition at 10 µM is associated with CCCCC#Cc1nc(N)c2nc(C#CCCCC)n([C@@H]3O[C@H](CO)[C@@H](O)[C@H]3O)c2n1 on UniProt P25099?
Reply: 50.3

###

Read-out record for adenosine A2A receptor (Rattus norvegicus): Ki
Numbers only; they are read as nM.

- COMPOUND: "CCCC/C=C/c1nc(N)c2ncn([C@@H]3O[C@H](CO)[C@@H](O)[C@H]3O)c2n1 [Compound 4, 2-((E)-1-hexenyl)adenosine]"
  TARGET_ENTITY: "adenosine A2A receptor (Rattus norvegicus)"
  PROPERTY_NAME: "Ki"
  REPORTED_RESULT: 26.2
- COMPOUND: "CCCCNc1nc2c(N)nc(I)nc2n1[C@@H]1O[C@H](CO)[C@@H](O)[C@H]1O"
  TARGET_ENTITY: "adenosine A2A receptor (Rattus norvegicus)"
  PROPERTY_NAME: "Ki"
  REPORTED_RESULT: 3110
- COMPOUND: "CCCC/C=C/c1nc(N)c2nc(NCC)n([C@@H]3O[C@H](CO)[C@@H](O)[C@H]3O)c2n1 [Compound 18, 2-((E)-1-hexenyl)-8-ethylaminoadenosine]"
  TARGET_ENTITY: "adenosine A2A receptor (Rattus norvegicus)"
  PROPERTY_NAME: "Ki"
  REPORTED_RESULT: 1840
- COMPOUND: "CCCC/C=C/c1nc(N)c2nc(NC)n([C@@H]3O[C@H](CO)[C@@H](O)[C@H]3O)c2n1 [Compound 17, 2-((E)-1-Hexenyl)-8-methylaminoadenosine]"
  TARGET_ENTITY: "adenosine A2A receptor (Rattus norvegicus)"
  PROPERTY_NAME: "Ki"
  REPORTED_RESULT: 663
- COMPOUND: "CCCC/C=C/c1nc(N)c2nc(NCCCC)n([C@@H]3O[C@H](CO)[C@@H](O)[C@H]3O)c2n1 [Compound 20, 2-((E)-1-hexenyl)-8-butylaminoadenosine]"
  TARGET_ENTITY: "adenosine A2A receptor (Rattus norvegicus)"
  PROPERTY_NAME: "Ki"
  REPORTED_RESULT: 580
- COMPOUND: "CCCCC#Cc1nc(N)c2nc(NCCCC)n([C@@H]3O[C@H](CO)[C@@H](O)[C@H]3O)c2n1"
  TARGET_ENTITY: "adenosine A2A receptor (Rattus norvegicus)"
  PROPERTY_NAME: "Ki"
  REPORTED_RESULT: 149

From here, focus on the item given below.
Ask: So what Ki did CCCCC#Cc1nc(N)c2nc(NCC)n([C@@H]3O[C@H](CO)[C@@H](O)[C@H]3O)c2n1 get with adenosine A2A receptor (Rattus norvegicus)?
Reply: 253

###

TARGET_ENTITY: human A3 receptor (Homo sapiens, UniProt P0DMS8)
Construct: expressed in transfected cells; host or cells: HEK 293
Sequence (P0DMS8 whole entry): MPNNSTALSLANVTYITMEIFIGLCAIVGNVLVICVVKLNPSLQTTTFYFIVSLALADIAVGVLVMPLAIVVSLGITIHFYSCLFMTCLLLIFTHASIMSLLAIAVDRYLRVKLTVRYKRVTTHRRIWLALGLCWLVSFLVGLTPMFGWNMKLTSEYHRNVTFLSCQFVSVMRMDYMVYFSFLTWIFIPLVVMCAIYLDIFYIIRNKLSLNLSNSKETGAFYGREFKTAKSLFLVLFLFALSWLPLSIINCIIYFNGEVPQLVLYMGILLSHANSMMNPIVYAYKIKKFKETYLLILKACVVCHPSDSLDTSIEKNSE
PROCEDURE_DETAILS: Radioligand binding, displacement of [125I]AB-MECA from human A3 receptor expressed in HEK 293 cells
RUN_CONDITIONS: [125I]AB-MECA, human A3 receptor in HEK 293 cells; ±SEM, n=3; read-out: Ki A3
PROPERTY_NAME: Ki (nM)
Give a bare numeral; the unit nM is implied.

Ask: I'd like to know its Ki. The molecule in question is CCCCC#Cc1nc(N)c2ncn([C@@H]3O[C@H](CO)[C@@H](O)[C@H]3O)c2n1
Reply: 16.9

###

molecules and their reported melting point

- MOLECULE: "CCCNc1nc2c(N)nc(I)nc2n1[C@@H]1O[C@H](CO)[C@@H](O)[C@H]1O"
  melting point: "160 to 162 °C"

Ask: I am curious: what melting point value has been reported for CCCCC#Cc1nc(N)c2nc(NCCCC)n([C@@H]3O[C@H](CO)[C@@H](O)[C@H]3O)c2n1 ?
Reply: 182 to 184 °C

Ask: // query melting point value for entry CCCC/C=C/c1nc(N)c2nc(NCc3ccccc3)n([C@@H]3O[C@H](CO)[C@@H](O)[C@H]3O)c2n1 [Compound 21, 2-((E)-1-hexenyl)-8-benzylaminoadenosine]
Reply: 153 to 155 °C

Ask: Bench note: what melting point did CCCC/C=C/c1nc(N)c2nc(NCCC)n([C@@H]3O[C@H](CO)[C@@H](O)[C@H]3O)c2n1 [Compound 19, 2-((E)-1-hexenyl)-8-propylaminoadenosine] show?
Reply: 170 to 172 °C

###

Examples of compounds with documented % displacement at 10^-5 M, A2A follow.
TARGET_ENTITY: adenosine A2A receptor (Rattus norvegicus, UniProt P30543)
Sequence (P30543 whole entry): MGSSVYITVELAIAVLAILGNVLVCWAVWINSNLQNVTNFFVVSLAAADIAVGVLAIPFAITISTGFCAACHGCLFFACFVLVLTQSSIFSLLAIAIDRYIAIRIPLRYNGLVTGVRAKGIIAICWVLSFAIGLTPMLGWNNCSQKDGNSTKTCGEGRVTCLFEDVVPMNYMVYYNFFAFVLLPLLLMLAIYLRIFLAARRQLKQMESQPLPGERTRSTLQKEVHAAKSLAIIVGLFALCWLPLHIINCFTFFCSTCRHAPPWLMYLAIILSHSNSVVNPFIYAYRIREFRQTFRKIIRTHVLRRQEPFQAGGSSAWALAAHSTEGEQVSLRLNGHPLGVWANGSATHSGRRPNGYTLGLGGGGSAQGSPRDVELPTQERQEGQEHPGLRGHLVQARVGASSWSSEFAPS
PROCEDURE_DETAILS: biochemical
RUN_CONDITIONS: [3H]ZM241385, rat striatal membranes; 10 μM; n=2, mean value
Report only the number, with the unit % understood.

Here are 3 compounds together with their reported answers.
- COMPOUND: "Nc1nc(NCc2ccccc2)nc2c1nc(NCc1ccccc1)n2[C@@H]1O[C@H](CO)[C@@H](O)[C@H]1O"
  REPORTED_RESULT: 11.6
- COMPOUND: "CCCCC#Cc1nc(N)c2nc(C#CCCCC)n([C@@H]3O[C@H](CO)[C@@H](O)[C@H]3O)c2n1"
  REPORTED_RESULT: 28.7
- COMPOUND: "CNc1nc2c(N)nc(I)nc2n1[C@@H]1O[C@H](CO)[C@@H](O)[C@H]1O"
  REPORTED_RESULT: 43.3

Ask: What measured % displacement at 10^-5 M, A2A is associated with CCCC/C=C/c1nc(N)c2nc(NCc3ccccc3)n([C@@H]3O[C@H](CO)[C@@H](O)[C@H]3O)c2n1 [Compound 21, 2-((E)-1-hexenyl)-8-benzylaminoadenosine] on adenosine A2A receptor (Rattus norvegicus, UniProt P30543)?
Reply: 26.3

Ask: Enter reported % displacement at 10^-5 M, A2A observed with adenosine A2A receptor (Rattus norvegicus, UniProt P30543) for Nc1nc(I)nc2c1nc(Br)n2[C@@H]1O[C@H](CO)[C@@H](O)[C@H]1O
Reply: 43.1

Ask: Identify the measured % displacement at 10^-5 M, A2A of CCCCC#Cc1nc(N)c2nc(NCc3ccccc3)n([C@@H]3O[C@H](CO)[C@@H](O)[C@H]3O)c2n1 for adenosine A2A receptor (Rattus norvegicus, UniProt P30543).
Reply: 35.4

Ask: Short answer please: % displacement at 10^-5 M, A2A, adenosine A2A receptor (Rattus norvegicus, UniProt P30543), entry Nc1nc(I)nc2c1nc(NCc1ccccc1)n2[C@@H]1O[C@H](CO)[C@@H](O)[C@H]1O
Reply: 44.7

Ask: Find % displacement at 10^-5 M, A2A (adenosine A2A receptor (Rattus norvegicus, UniProt P30543)) for the entry CCCNc1nc2c(N)nc(I)nc2n1[C@@H]1O[C@H](CO)[C@@H](O)[C@H]1O
Reply: 50.7

Ask: Lookup: % displacement at 10^-5 M, A2A / adenosine A2A receptor (Rattus norvegicus, UniProt P30543) / CCNc1nc2c(N)nc(I)nc2n1[C@@H]1O[C@H](CO)[C@@H](O)[C@H]1O
Reply: 40.6

Reference for the values: patent US7112574B2
